The values you see were collected from PubChem BioAssay (NCI).

Entries and their TGI
Test system: SK-MEL-5 melanoma
Experiment: NCI tumour cell line growth inhibition, 48 h

Field: example entries. Status: answers known.
O=C([O-])c1ccc2c(c1)-c1nc-2nc2[n-]c(nc3nc(nc4[n-]c(n1)c1ccc(C(=O)[O-])cc41)-c1cc(C(=O)[O-])ccc1-3)c1ccc(C(=O)[O-])cc21.[Fe+2]: > 50 µM
O=[N+]([O-])c1ccc(NC2OCC(O)C(O)C2O)cc1 (centres undefined): > 100 µM
FC(F)(F)c1ccc(C=NC23CC4CC(CC(C4)C2)C3)cc1: > 100 µM

Let's switch to this molecule now.
Prompt: Looking for the measured TGI of Nc1c(C(=O)c2cccc(OCCN3CCOCC3)c2)cnn1-c1ccc(F)cc1 , can you help?
Completion: > 25 µM

* * *

Test system: HL-60(TB) leukemia
Assay: NCI tumour cell line growth inhibition, 48 h
ASSAY_METRIC: TGI

CC(C)(C)c1cc(-c2ccc(-c3cc(C(C)(C)C)c(O)c(C(C)(C)C)c3)cc2)cc(C(C)(C)C)c1O: > 100 µM

Prompt: Value wanted: TGI (HL-60(TB) leukemia) of entry CC(C)(C)OC(=O)C1=C(C(=O)OC(C)(C)C)SC2(S1)C(C(=O)OC(C)(C)C)=C(C(=O)OC(C)(C)C)Sc1c2ssc1=O
Completion: > 100 µM

Prompt: Value wanted: TGI (HL-60(TB) leukemia) of entry Nc1nc2c(ncn2CCOC(c2ccccc2)P(=O)(O)O)c(=O)[nH]1 (stereo not given)
Completion: > 100 µM

Prompt: Value wanted: TGI (HL-60(TB) leukemia) of entry O=C1CC2CCCCC2=C1O (stereo not given)
Completion: > 100 µM

Prompt: Value wanted: TGI (HL-60(TB) leukemia) of entry Nc1ccc(C#Cc2cncnc2Nc2ccc(OCc3cccc(F)c3)c(Cl)c2)cc1
Completion: > 25 µM

* * *

System: A498 renal
Test: NCI tumour cell line growth inhibition, 48 h; in the data active = GI50 below about 0.43 µM; inactive = the rest
Field 'call' accepts Y = active, N = inactive

COc1ccc(-c2cnc(-c3ccc(F)cc3)[nH]2)cc1: N
O=c1cccc(C#Cc2ccccc2)o1: N
O=C1c2cccnc2-c2nc(/C=C/c3ccccc3)cc3c2c1nc1ccccc13: N

Prompt: Recorded test call requested for O=C1C(Cl)=C(Nc2ccc3cn[nH]c3c2)C(=O)c2ccccc21
Completion: N

Prompt: Recorded test call requested for CC[C@@]1(O)C(=O)OCc2c1cc1n(c2=O)Cc2cc3cc(OC)ccc3nc2-1
Completion: Y

Prompt: Recorded test call requested for Cc1cc(S(=O)(=O)Nc2nc3ccsc3c(=O)n2Cc2ccco2)c(S)cc1Cl
Completion: N

Prompt: Recorded test call requested for COc1ncc(-c2nc3c(n2C(C)C)[C@H](c2ccc(Cl)cc2)N(c2cc(Cl)cn(C)c2=O)C3=O)c(OC)n1
Completion: N

Prompt: Recorded test call requested for COC(=O)[C@]12CC[C@@H](C)[C@H](C)[C@@H]1C1=CC[C@@H]3[C@@]4(C)C(C=O)=C[C@@](C)(COC(C)=O)[C@@H]4[C@H](O)C[C@@]3(C)[C@]1(C)CC2
Completion: N

Prompt: Recorded test call requested for C/C=C(\C)C(=O)O[C@@H]1C(O)[C@H]2OC(COC(=O)CCC(=O)CCCCCC[C@H](CCCCC)O[C@@H]3OC(C)[C@H](OC(C)=O)C(O)[C@H]3O2)[C@H]1OC(=O)/C=C/c1ccccc1 (some centres undefined)
Completion: Y
